# assayed-system: T1, soluble rhesus MSLN (87BIC) (Rhesus (Macaca mulatta))
# T1 construct: Purified soluble protein coated on the ELISA plate; also called Rh MSLN (87BIC); purified rhesus MSLN
# T1 chain: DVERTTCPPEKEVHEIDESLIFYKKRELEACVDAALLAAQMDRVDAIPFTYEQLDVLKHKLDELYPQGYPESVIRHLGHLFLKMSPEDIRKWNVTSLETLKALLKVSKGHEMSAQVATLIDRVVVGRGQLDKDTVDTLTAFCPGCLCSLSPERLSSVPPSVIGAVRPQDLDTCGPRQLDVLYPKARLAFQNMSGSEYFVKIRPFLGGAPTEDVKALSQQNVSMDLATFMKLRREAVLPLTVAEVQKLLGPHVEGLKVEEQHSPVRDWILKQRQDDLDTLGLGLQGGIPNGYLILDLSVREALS
# experimental-details: protein ELISA, coated soluble rhesus MSLN (87BIC)
metric: EC50 (µg/mL)
Numbers only, in µg/mL.

Consider the following illustrative entries.
binder: SV017.13B12.1E1 (antibody, V domains shown, also called antibody from hybridoma clone SV017.13B12.1E1) VH: EVQLVESGGGLVQPGGSLRLSCAATGFTFSSYWMHWVRQGPGKGLVWVSRINSDGTSTVYADSVKGRFTISRDNAKNTLHLQMNSLRAEDTAVYYCARGRGIMTYWGQGTLVTVSS VL: DIQMTQSPSSLSASVGDRVTITCRASQDIGSWLTWYQRKPEKAPKSLIYAASSLQSGVPSRFSGSGSGTDFTLTISSLQPEDFATYYCQQYKSYPLTFGQGAKLEIK
display-unit: µg/mL
EC50: 0.02
//
binder: SV017.51F4.1A1 (antibody, V domains shown, also called antibody from hybridoma clone SV017.51F4.1A1) VH: EVQLVESGGGLVQPGGSLRLSCAATGFTFSSYWMHWVRQGPGKGLVWVSRINSDGTSTVYADSVKGRFTISRDNAKNTLYLQMNSLRAEDTAVYYCARGRGIMTYWGQGTLVTVSS VL: DIQMTQSPSSLSASVGDRVTITCRASQDIGSWLTWYQRKPEKAPKSLIYAASSLQSGVPSRFSGSGSGTDFTLTISSLQPEDFATYYCQQYKSYPLTFGQGAKLEIK
display-unit: µg/mL
EC50: 0.02
//
binder: SV017.47D7.1C2 (antibody, V domains shown, also called antibody from hybridoma clone SV017.47D7.1C2) VH: EVQLVESGGGLVQPGGSLRLSCAATGFTFSSYWMHWVRQGPGKGLVWVSRINSDGTSTVYADSVKGRFTISRDNAKNTLYLQMNSLRAEDTAVYYCARGRGIMTYWGQGTLVTVSS VL: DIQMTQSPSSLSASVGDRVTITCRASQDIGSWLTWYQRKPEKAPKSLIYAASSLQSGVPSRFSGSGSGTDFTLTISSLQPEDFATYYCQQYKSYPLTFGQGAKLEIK
display-unit: µg/mL
EC50: 0.01

Shifting focus to the binder that follows.
input: Suppose we examine the binder SV017.50G3.1B1 (antibody, V domains shown, also called antibody from hybridoma clone SV017.50G3.1B1) VH: EVQLVESGGGLVQPGESLRLSCAATGFTFSSYWMHWVRQGPGKGLVWVSRINSDGTSTVYADSVKGRFTISRDNAKNTLFLQMNSLRAEDTAVYYCARGRGIMTYWGQGTLVTVSS VL: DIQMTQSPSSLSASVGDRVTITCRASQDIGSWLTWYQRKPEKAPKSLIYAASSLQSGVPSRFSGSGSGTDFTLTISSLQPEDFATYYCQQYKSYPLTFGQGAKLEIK ; what EC50 value has been reported?
output: 0.02
